Target: hGLP-1R (Homo sapiens, UniProt P43220)
Test: cell-based or functional assay
Labelling: cAMP EC50 reported below 0.2 nM becomes true; at or above becomes false.

# count of solved cases: 2
{"BINDER": "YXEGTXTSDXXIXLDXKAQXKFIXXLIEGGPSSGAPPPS (Y-Aib-EGT-αMeF(2F)-TSD-4Pal-Aib-I-αMeL-LD-Orn-K((2-[2-(2-Amino-ethoxy)-ethoxy]-acetyl)-(γ-Glu)-CO-(CH2)12-CO2H)AQ-Aib-K((2-[2-(2-Amino-ethoxy)-ethoxy]-acetyl)-(γ-Glu)-CO-(CH2)12-CO2H)FI-(D-Glu)-αMeY-LIEGGPSSGAPPPS-NH2) [Example 336]", "GROUP": "false"}
{"BINDER": "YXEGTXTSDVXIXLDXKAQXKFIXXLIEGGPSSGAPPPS (Y-Aib-EGT-αMeF(2F)-TSDV-Aib-I-αMeL-LD-Orn-K((2-[2-(2-Amino-ethoxy)-ethoxy]-acetyl)-(γ-Glu)-(10-(4-carboxyphenoxy)decanoyl))AQ-Aib-K((2-[2-(2-Amino-ethoxy)-ethoxy]-acetyl)-(γ-Glu)-(10-(4-carboxyphenoxy)decanoyl))FI-(D-Glu)-αMeY-LIEGGPSSGAPPPS-NH2) [Example 378]", "GROUP": "true"}

Find out if reported cAMP EC50 for YXEGTXTSDYXIXLDXKAQXKFIXXLIXGGPSSGAPPPS (Y-Aib-EGT-αMeF(2F)-TSDY-Aib-I-αMeL-LD-Orn-K((2-[2-(2-Amino-ethoxy)-ethoxy]-acetyl)2-(γ-Glu)-(10-(4-carboxyphenoxy)decanoyl))AQ-Aib-K((2-[2-(2-Amino-ethoxy)-ethoxy]-acetyl)2-(γ-Glu)-(10-(4-carboxyphenoxy)decanoyl))FI-(D-Glu)-αMeY-LI-Orn-GGPSSGAPPPS-NH2) [Example 409] is less than 0.2 nM
true

Find out if reported cAMP EC50 for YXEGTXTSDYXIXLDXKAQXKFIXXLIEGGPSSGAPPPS (Y-Aib-EGT-αMeF(2F)-TSDY-Aib-I-αMeL-LD-Orn-K((2-[2-(2-Amino-ethoxy)-ethoxy]-acetyl)-(γ-Glu)-CO-(CH2)12-CO2H)AQ-Aib-K((2-[2-(2-Amino-ethoxy)-ethoxy]-acetyl)-(γ-Glu)-CO-(CH2)12-CO2H)FI-(D-Glu)-αMeY-LIEGGPSSGAPPPS-NH2) [Example 366] is less than 0.2 nM
false

Find out if reported cAMP EC50 for YXEGTXTSDKXIXLDGKAQXEFIXXLIEGGPSSGAPPPS (Y-Aib-EGT-αMeF(2F)-TSDK((2-[2-(2-Amino-ethoxy)-ethoxy]-acetyl)2-(γ-Glu)-CO-(CH2)10-CH3)-Aib-I-αMeL-LDGK((2-[2-(2-Amino-ethoxy)-ethoxy]-acetyl)2-(γ-Glu)-CO-(CH2)10-CH3)AQ-Aib-EFI-(D-Glu)-αMeY-LIEGGPSSGAPPPS-NH2) [Example 445] is less than 0.2 nM
true

Find out if reported cAMP EC50 for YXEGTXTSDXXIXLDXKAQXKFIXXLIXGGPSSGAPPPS (Y-Aib-EGT-αMeF(2F)-TSD-4Pal-Aib-I-αMeL-LD-Orn-K((2-[2-(2-Amino-ethoxy)-ethoxy]-acetyl)3-(γ-Glu)-CO-(CH2)10-CH3)AQ-Aib-K((2-[2-(2-Amino-ethoxy)-ethoxy]-acetyl)3-(γ-Glu)-CO-(CH2)10-CH3)FI-(D-Glu)-αMeY-LI-Orn-GGPSSGAPPPS-NH2) [Example 433] is less than 0.2 nM
true
